This section presents compounds with their documented MTD values.
- Test system: Mus musculus
- Method Notes: In vivo antitumor activity was measured as the maximum dose tolerated by murine when administered intravenously
- Type: functional
Numbers only here, please. The scale is mg/kg.

(Q) Suppose we examine the compound Cc1cc(-c2c(F)cc3c4nn(CCNCCO)c(=O)c-4cn(C4CC4)c3c2F)cc(C)n1 ; what MTD value has been reported?
(A) 1410

Further cases:
(Q) Suppose we examine the compound Cc1cc(-c2c(F)cc3c4nn([C@H]5CC[C@@H](N(C)C)CC5)c(=O)c-4cn(C4CC4)c3c2F)cc(C)n1 ; what MTD value has been reported?
(A) 63

(Q) Suppose we examine the compound Cc1cc(-c2c(F)cc3c4nn([C@H]5CC[C@@H](N)CC5)c(=O)c-4cn(C4CC4)c3c2F)cc(C)n1 ; what MTD value has been reported?
(A) 110

(Q) Suppose we examine the compound Cc1cc(-c2c(F)cc3c4nn(CCCN(C)C)c(=O)c-4cn(C4CC4)c3c2F)cc(C)n1 ; what MTD value has been reported?
(A) 64

###

- Experimental Target: DNA topoisomerase II (Homo sapiens, UniProt P11388+Q02880)
- Method Notes: Compound was tested for topoisomerase II inhibition in purified HeLa cells by SDS/K+ precipitation method
- Format: cell-based
Property Name: EC50 (µM)
Numbers only here, please. The scale is µM.

Look over these answered cases.
(Q) Suppose we examine the compound Cc1cc(-c2c(F)cc3c4nn(C)c(=O)c-4cn(C4CC4)c3c2F)cc(C)n1 ; what EC50 value has been reported?
(A) 5.9

(Q) Suppose we examine the compound Cc1cc(-c2c(F)cc3c4nn(CCNCCO)c(=O)c-4cn(C4CC4)c3c2F)cc(C)n1 ; what EC50 value has been reported?
(A) 3.3

(Q) Suppose we examine the compound Cc1cc(-c2c(F)cc3c4n[nH]c(=O)c-4cn(C4CC4)c3c2F)cc(C)n1 ; what EC50 value has been reported?
(A) 11

(Q) Suppose we examine the compound Cc1cc(-c2c(F)cc3c4nn([C@H]5CC[C@@H](N)CC5)c(=O)c-4cn(C4CC4)c3c2F)cc(C)n1 ; what EC50 value has been reported?
(A) 0.5

(Q) Suppose we examine the compound Cc1cc(-c2c(F)cc3c4nn(CCO)c(=O)c-4cn(C4CC4)c3c2F)cc(C)n1 ; what EC50 value has been reported?
(A) 6.4

Further cases:
(Q) Suppose we examine the compound Cc1cc(-c2c(F)cc3c4nn(C5CCOCC5)c(=O)c-4cn(C4CC4)c3c2F)cc(C)n1 ; what EC50 value has been reported?
(A) 1.7

(Q) Suppose we examine the compound Cc1cc(-c2c(F)cc3c4nn(C5CCCCC5)c(=O)c-4cn(C4CC4)c3c2F)cc(C)n1 ; what EC50 value has been reported?
(A) 0.9

(Q) Suppose we examine the compound Cc1cc(-c2c(F)cc3c4nn([C@H]5CC[C@H](N(C)C)CC5)c(=O)c-4cn(C4CC4)c3c2F)cc(C)n1 ; what EC50 value has been reported?
(A) 4.4

(Q) Suppose we examine the compound Cc1cc(-c2c(F)cc3c4nn(CCN(C)C)c(=O)c-4cn(C4CC4)c3c2F)cc(C)n1 ; what EC50 value has been reported?
(A) 2.6

(Q) Suppose we examine the compound Cc1cc(-c2c(F)cc3c4nn(CC(=O)O)c(=O)c-4cn(C4CC4)c3c2F)cc(C)n1 ; what EC50 value has been reported?
(A) 10

(Q) Suppose we examine the compound CC(=O)N[C@H]1CC[C@H](n2nc3c4cc(F)c(-c5cc(C)nc(C)c5)c(F)c4n(C4CC4)cc-3c2=O)CC1 ; what EC50 value has been reported?
(A) 9.8

(Q) Suppose we examine the compound Cc1cc(-c2c(F)cc3c4nn(C5CCN(C)CC5)c(=O)c-4cn(C4CC4)c3c2F)cc(C)n1 ; what EC50 value has been reported?
(A) 3.2

###

This section presents molecules with their documented MTD values.
- System: Mus musculus
- Method Notes: In vivo antitumor activity was measured as the maximum dose tolerated by murine when administered intravenously
- Type: functional
Numbers only here, please. The scale is mg/kg.

Look over these answered cases.
(Q) Suppose we examine the molecule Cc1cc(-c2c(F)cc3c4nn(C5CCCCC5)c(=O)c-4cn(C4CC4)c3c2F)cc(C)n1 ; what MTD value has been reported?
(A) 140

(Q) Suppose we examine the molecule COc1cc(NS(C)(=O)=O)ccc1Nc1c2ccccc2nc2ccccc12 ; what MTD value has been reported?
(A) 48

Further cases:
(Q) Suppose we examine the molecule COc1cc([C@@H]2c3cc4c(cc3[C@@H](O[C@@H]3O[C@@H]5CO[C@@H](C)O[C@H]5[C@H](O)[C@H]3O)[C@H]3COC(=O)[C@H]23)OCO4)cc(OC)c1O [ETOPOSIDE] ; what MTD value has been reported?
(A) 96

(Q) Suppose we examine the molecule Cc1cc(-c2c(F)cc3c4nn([C@H]5CC[C@H](N)CC5)c(=O)c-4cn(C4CC4)c3c2F)cc(C)n1 ; what MTD value has been reported?
(A) 550

(Q) Suppose we examine the molecule Cc1cc(-c2c(F)cc3c4nn(C5CCN(C)CC5)c(=O)c-4cn(C4CC4)c3c2F)cc(C)n1 ; what MTD value has been reported?
(A) 128

(Q) Suppose we examine the molecule Cc1cc(-c2c(F)cc3c4nn(CCN(C)C)c(=O)c-4cn(C4CC4)c3c2F)cc(C)n1 ; what MTD value has been reported?
(A) 34

(Q) Suppose we examine the molecule Cc1cc(-c2c(F)cc3c4nn([C@H]5CC[C@H](N(C)C)CC5)c(=O)c-4cn(C4CC4)c3c2F)cc(C)n1 ; what MTD value has been reported?
(A) 390

###

- Experimental Target: DNA topoisomerase II (Homo sapiens, UniProt P11388+Q02880)
- Method Notes: Compound was tested for topoisomerase II inhibition in purified HeLa cells by SDS/K+ precipitation method
- Format: cell-based
Label true (1) when EC50 < 2 µM; otherwise false (0).

(Q) Record Cc1cc(-c2c(F)cc3c4nn([C@H]5CC[C@@H](N(C)C)CC5)c(=O)c-4cn(C4CC4)c3c2F)cc(C)n1 : is its EC50 strictly below 2 µM?
(A) true (1)

(Q) Record Cc1cc(-c2c(F)cc3c4nn(C5CCC(C)CC5)c(=O)c-4cn(C4CC4)c3c2F)cc(C)n1 (stereo unspecified) : is its EC50 strictly below 2 µM?
(A) false (0)

(Q) Record CCOC(=O)Cn1nc2c3cc(F)c(-c4cc(C)nc(C)c4)c(F)c3n(C3CC3)cc-2c1=O : is its EC50 strictly below 2 µM?
(A) false (0)

(Q) Record Cc1cc(-c2c(F)cc3c4nn([C@H]5CC[C@H](N)CC5)c(=O)c-4cn(C4CC4)c3c2F)cc(C)n1 : is its EC50 strictly below 2 µM?
(A) false (0)

(Q) Record CC(=O)N[C@H]1CC[C@@H](n2nc3c4cc(F)c(-c5cc(C)nc(C)c5)c(F)c4n(C4CC4)cc-3c2=O)CC1 : is its EC50 strictly below 2 µM?
(A) false (0)

Further cases:
(Q) Record Cc1cc(-c2c(F)cc3c4nn(CCCN(C)C)c(=O)c-4cn(C4CC4)c3c2F)cc(C)n1 : is its EC50 strictly below 2 µM?
(A) true (1)
